System: NOMO1
Experiment: cell viability relative to DMSO control; higher = less cytotoxic
Settings: RPMI 5 mM glucose + 10% dialyzed FBS; 48 h; 0.19 µM
This section presents molecules with their documented cell viability values.
The reply should contain only the number, in %.

Check out these entries, answers already filled in.
> print(dat)
                                   molecule  recorded.metric  value.reported
1  N#CCNC(=O)c1ccc(-c2ccnc(Nc3ccc(N4CCOCC4)cc3)n2)cc1   cell viability             110
2  Nc1ncnc2c1ncn2[C@@H]1O[C@@H](CO)[C@H](O)[C@@H]1O   cell viability             136
3  COCC1(CO)C(=O)C2CCN1CC2 (centres undefined)   cell viability             108
4  CCOC(=O)N1CCN(/[N+]([O-])=N/Oc2ccc([N+](=O)[O-])cc2C#N)CC1   cell viability             115
5  CC(C)(O)CC[C@@H](O)[C@](C)(O)[C@H]1CC[C@@]2(O)C/3=C/C(=O)[C@@H]4C[C@@H](O)[C@@H](O)C[C@]4(C)[C@H]3CC[C@]12C   cell viability            91.6
6  C[C@H](NC(=O)c1sccc1OCc1ccc(Cl)cc1)c1ccccc1   cell viability            76.2
7  COc1ccc([S+](=O)([O-])N(C(C)=O)c2ccccc2/C=C/c2cc[n+]([O-])cc2)cc1   cell viability             121
8  ClC1=CC=C(C=C1)C(C#N)C2=C(Cl)C=C(C=C2Cl)N3\N=C/C(=O)NC3=O (centres undefined)   cell viability             110

Prompt: I'd like to know its cell viability. The molecule in question is COC(=O)C[C@](O)(CCCC(C)(C)O)C(=O)O[C@@H]1C(OC)=CC23CCCN2CCc2cc4c(cc2[C@H]13)OCO4 (some centres undefined)
Response: 109

###

Tested on: SEM cells
Assay: cell viability relative to DMSO control; higher = less cytotoxic
Details: RPMI 5 mM glucose + 10% FBS; 48 h; 15.4 µM
Recorded Metric: cell viability (%)
The reply should contain only the number, in %.

Check out these entries, answers already filled in.
> print(dat)
                                  structure  value.reported
1  CCOC(=O)[C@@H](N)Cc1ccc(-c2cc(O[C@H](c3ccc(Cl)cc3-n3ccc(C)n3)C(F)(F)F)nc(N)n2)cc1.O=C(O)CNC(=O)c1ccccc1             115
2  C[C@H]1C[C@@H]2[C@H](CC[C@@]3(C)[C@H]2CC[C@]3(OC(C)=O)C(C)=O)[C@@]\4(C)CCC(=O)\C=C14            80.8
3  C[N]1C=C(C=N1)C2=C3\C=N/NC(=O)C4=C3C(=CC(=C4)NC(=O)[C@H](N)C5CCCCC5)[NH]2              22

Prompt: I'd like to know its cell viability. The compound in question is CN(C)C1CCN(C(=O)c2ccc(NC(=O)Nc3nc(N4CCOCC4)nc(N4CCOCC4)n3)cc2)CC1
Response: 17.8

Prompt: I'd like to know its cell viability. The compound in question is c1ccc(CCCN2CCN(CCOC(c3ccccc3)c3ccccc3)CC2)cc1
Response: 19.2
